- Tested on: intestinal alkaline phosphatase [Mus musculus]
- assay-notes: mouse intestinal phosphatase enzyme activation – biochemical, luminescence, single concentration, confirmation (AID 434970)
- details: purified mouse IAP, CDP-Star luminescence, 30 min, at 10 µM; hits give low values
In all, about 11,000 compounds went through this assay and about 310 (2.8%) were called active. This is one part of a sample in which actives are shown more often than they occur.
Cut-off -10% on activity change, negative = activation: below means yes (1), at or above means no (0).

Query :: Determine whether this compound shows activity change, negative = activation lower than -10% (ties excluded): `O=C(CSc1ncn[nH]1)NCCc1ccccc1`
Result :: yes (1)

Query :: Determine whether this compound shows activity change, negative = activation lower than -10% (ties excluded): `O=C(NCCc1ccccc1)c1cc(-c2ccccc2)c(N2CCOCC2)s1`
Result :: yes (1)

Query :: Determine whether this compound shows activity change, negative = activation lower than -10% (ties excluded): `O=C1c2ccccc2[C@@H]2C[C@@H](O)[C@H](Nc3ccccc3Cl)CCN12`
Result :: no (0)

Query :: Determine whether this compound shows activity change, negative = activation lower than -10% (ties excluded): `COc1ccc(N2CCN(c3nc(NCCO)nc(N4CCOCC4)n3)CC2)cc1`
Result :: no (0)

Query :: Determine whether this compound shows activity change, negative = activation lower than -10% (ties excluded): `CC(=O)c1ccc2c(c1)N(C)c1ccccc1S2`
Result :: no (0)

Query :: Determine whether this compound shows activity change, negative = activation lower than -10% (ties excluded): CCOc1ccc(C2C(C#N)=C(N)N(c3sc4c(c3C#N)CCCC4)C3=C2C(=O)CCC3)cc1 (stereo not given)
Result :: no (0)

Query :: Determine whether this compound shows activity change, negative = activation lower than -10% (ties excluded): `CCCCSCCCNC(=O)Nc1ccc(CC)cc1`
Result :: yes (1)

Query :: Determine whether this compound shows activity change, negative = activation lower than -10% (ties excluded): `CCCCSCCCNC(=O)Nc1ccc(C)c(C)c1`
Result :: yes (1)

Query :: Determine whether this compound shows activity change, negative = activation lower than -10% (ties excluded): `C#CCOCCOCCOCCNc1nc(N2CCN(C(=O)CCCCCCCCCCNC(=O)[C@@H](CCSC)n3cc(CCO)nn3)CC2)nc(N2CCN(C(=O)CCCCCCCCCCNC(=O)[C@H]([C@@H](C)CC)n3cc(CCCCCN)nn3)CC2)n1`
Result :: yes (1)

Every entry's value here was drawn from PubChem BioAssay AID434970.
